- test_details: Toxicity (LD50 by oral administration to mouse)
- measurement_setup: in vivo
observed_property: LD50

Please fill in: LD50 reported for `Cc1ccc(S(=O)(=O)N(c2ccc(C(F)(F)F)cc2OCc2ccc(C(=O)O)cc2)C(C)C)o1` = ≥ 2000 mg/kg

====

Catalogue of Inhibition (%) values
- Tested on: male ddy mice
- test_details: Tail-suspension test in mice
- Type: in vivo
- measurement_setup: inhibition of immobility vs. vehicle; 10 mg/kg orally 1 hour before measurement; ten animals per group
Entry rule: numbers only, all in %.

Cc1ccc(S(=O)(=O)N(CC(C)C)c2cc3c(cc2OCc2ccc(/C=C/C(=O)O)cc2)CCC3)o1	47

// Inhibition (%) lookup, compound = `Cc1ccc(S(=O)(=O)N(CC(C)C)c2cc(C)c(C)cc2OCc2ccc(C(=O)O)cc2)o1` , result: 27
